# method-summary: Human microsomal clearance assay
# Assay type: in vitro ADME
# settings: human, 1 μM, pH 7.4
endpoint-name: CLh

The examples below pair each entry with its known result.
• COC(=O)C1=C(CN2C3COCC2CC(CC(=O)O)C3)NC(c2nccs2)=N[C@H]1c1ccc(F)cc1Cl (stereo partly shown) = 2.6 mL/min/kg
• COC(=O)C1=C(CN2C3CCC2CN(C(C)=O)C3)NC(c2nccs2)=N[C@H]1c1ccc(F)cc1Cl = 7.0 mL/min/kg
• COC(=O)C1=C(CN2C3COCC2CC(N)(C(=O)O)C3)NC(c2nccs2)=N[C@H]1c1ccc(F)cc1Cl (stereo partly shown) = 5.1 mL/min/kg
• CCOC(=O)C1=C(CN2C3COCC2CC(CC(=O)O)C3)NC(c2nccs2)=N[C@H]1c1ccc(F)cc1Cl (stereo partly shown) = 3.5 mL/min/kg
• COC(=O)C1=C(CN2C3COCC2CC(CC(=O)O)C3)NC(c2nccs2)=N[C@H]1c1ccc(F)cc1Br (stereo partly shown) = 0.6 mL/min/kg
• CCOC(=O)C1=C(CN2[C@@H]3COC[C@H]2[C@H](F)[C@@H](CC(=O)O)C3)NC(c2nccs2)=N[C@H]1c1ccccc1Cl = 3.0 mL/min/kg

As a next step, examine the compound that follows.
Record CCOC(=O)C1=C(CN2C3COCC2C(F)(F)[C@H](CC(=O)O)C3)NC(c2nccs2)=N[C@H]1c1cccc(F)c1Cl (stereo partly shown) , field CLh: 5.0 mL/min/kg

###

# System: HepDE19 cells
# method-summary: Cytotoxicity (CCK-8 cell viability) and selectivity index
# Type: cell-based, human
# settings: CC50 value/EC50 value
endpoint-name: Selectivity index (CC50/EC50)
Give the value as a plain number.

The examples below pair each entry with its known result.
* COC(=O)C1=C(CN2C3COCC2CN(S(N)(=O)=O)C3)NC(c2nccs2)=N[C@H]1c1ccc(F)cc1Cl | 16571
* COC(=O)C1=C(CN2C3COCC2c2conc2C3)NC(c2nccs2)=N[C@H]1c1ccc(F)cc1Cl (stereo partly drawn) | 9079

As a next step, examine the compound that follows.
Record COC(=O)C1=C(CN2[C@@H]3C[C@@H](CC(=O)O)C[C@H]2C(F)(F)C3)NC(c2nccs2)=N[C@H]1c1ccc(F)c(F)c1C , field Selectivity index (CC50/EC50): 65983

###

# method-summary: Human microsomal clearance assay
# Assay type: in vitro ADME
# settings: human, 1 μM, pH 7.4
endpoint-name: CLh (mL/min/kg)
Field: numeric (mL/min/kg). Do not append units.

The examples below pair each entry with its known result.
* COC(=O)C1=C(CN2[C@@H]3COC[C@H]2C[C@H](NC(N)=O)C3)NC(c2nccs2)=N[C@H]1c1ccc(F)cc1Cl | 4.6
* COC(=O)C1=C(CN2C3COCC2C(F)(F)[C@H](CC(=O)O)C3)NC(c2nccs2)=N[C@H]1c1ccc(F)cc1Cl (stereo partly shown) | 0

Record COC(=O)C1=C(CN2C3COCC2C(O)[C@@H](CC(=O)O)C3)NC(c2nccs2)=N[C@H]1c1ccc(F)cc1Cl (stereo partly shown) , field CLh: 4.2

Record COC(=O)C1=C(CN2C3COCC2CC(C(=O)O)C3)NC(c2nccs2)=NC1c1ccc(F)c(F)c1 (stereo not shown) , field CLh: 0

Record COC(=O)C1=C(CN2C3CC(F)(F)C2C[C@@](O)(CC(=O)O)C3)NC(c2nccs2)=N[C@@H]1c1ccc(F)c(F)c1C (single isomer, unassigned) , field CLh: 3.1

Record CCOC(=O)C1=C(CN2[C@H]3COC[C@@H]2[C@@H](F)[C@H](CC(=O)O)C3)NC(c2nccs2)=N[C@H]1c1ccccc1Cl , field CLh: 0

Record CCOC(=O)C1=C(CN2C3COCC2C(OCC(=O)O)C3)NC(c2nccs2)=N[C@H]1c1ccc(F)cc1Br (mixture of isomers) , field CLh: 1.4

Record COC(=O)C1=C(CN2[C@@H]3COC[C@H]2C[C@@H](NS(N)(=O)=O)C3)NC(c2nccs2)=N[C@H]1c1ccc(F)cc1Cl , field CLh: 6.1

Record COC(=O)C1=C(CN2[C@@H]3C[C@H](CC(=O)O)C[C@H]2C(F)(F)C3)NC(c2nccs2)=N[C@H]1c1cccc(F)c1Br , field CLh: 0

Record COC(=O)C1=C(CN2C3COCC2C(C(=O)O)C3)NC(c2nccs2)=N[C@H]1c1ccc(F)cc1Cl (stereo partly shown) , field CLh: 0.5

###

# method-summary: Cytotoxicity (CCK-8 cell viability) and selectivity index
# Type: cell-based, human
# settings: human, HepDE19 cells; cytotoxicity, concentration resulting in death of 50% of host cells
// CC50 at 5 days lookup, one value per entry
Field: numeric (µM). Do not append units.

- COC(=O)C1=C(CN2[C@@H]3COC[C@H]2C[C@H](NS(N)(=O)=O)C3)NC(c2nccs2)=N[C@H]1c1ccc(F)cc1Cl [Example 63]: 34

Record COC(=O)C1=C(CN2C3COCC2CN(C(N)=O)C3)NC(c2nccs2)=N[C@H]1c1ccc(F)cc1Br [Example 54] , field CC50 at 5 days: 60

###

# method-summary: Human microsomal clearance assay
# Type: in vitro ADME
# settings: human, 1 μM, pH 7.4
endpoint-name: CLh (L/h/kg)
Field: numeric (L/h/kg). Do not append units.

Record COC(=O)C1=C(CN2[C@@H]3C[C@H](CC(=O)O)C[C@H]2C(F)(F)C3)NC(c2nccs2)=N[C@H]1c1ccc(F)cc1Cl , field CLh: 0

Record COC(=O)C1=C(CN2C3CC(F)(F)C2C[C@@](O)(CC(=O)O)C3)NC(c2nccs2)=N[C@H]1c1ccc(F)cc1Cl (single isomer, unassigned) , field CLh: 0.156

Record COC(=O)C1=C(CN2[C@H]3CC[C@]2(C(=O)O)CC3(F)F)NC(c2nccs2)=N[C@H]1c1ccc(F)cc1Cl , field CLh: 0.138

###

# Tested on: HepDE19 cells
# method-summary: Cytotoxicity (CCK-8 cell viability) and selectivity index
# Assay type: cell-based, human
# settings: cytotoxicity, concentration resulting in death of 50% of host cells
// CC50 lookup, one value per entry
Just the number plus its unit, please.

* COC(=O)C1=C(CN2[C@@H]3C[C@@H](CC(=O)O)C[C@H]2C(F)(F)C3)NC(c2nccs2)=N[C@H]1c1ccc(Cl)c(F)c1 (single isomer, unassigned) [Example 113] | 58 µM

As a next step, examine the compound that follows.
Record COC(=O)C1=C(CN2[C@H]3COC[C@@H]2C(F)(F)[C@H](CC(=O)O)C3)NC(c2nccs2)=N[C@H]1c1ccc(F)c(F)c1Cl (single isomer, unassigned) [Example 131] , field CC50: 53 µM

###

# method-summary: Lyophilisation solubility assay (Lysa)
# Type: physicochemical
# settings: aqueous buffer, thermodynamic from solid; 0.05 M phosphate buffer (pH 6.5); reported as bigger than the value if more than 80% of the sample is in solution; read-out: Lysa
endpoint-name: solubility thermodynamic

Record COC(=O)C1=C(CN2CC3CC2CN3C(C)=O)NC(c2nccs2)=N[C@H]1c1ccc(F)cc1Cl (stereo partly shown) , field solubility thermodynamic: > 552 µg/mL

###

# Test system: HepDE19 cells
# method-summary: Cytotoxicity (CCK-8 cell viability) and selectivity index
# Type: cell-based, human
# settings: CC50 value/EC50 value
endpoint-name: Selectivity index (CC50/EC50)
Give the value as a plain number.

- CCOC(=O)C1=C(CN2C3COCC2C(F)(F)[C@H](CC(=O)O)C3)NC(c2nccs2)=N[C@H]1c1cccc(F)c1Cl (stereo partly shown) [Example 130]: 10830

As a next step, examine the compound that follows.
Record COC(=O)C1=C(CN2C3COCC2CN(C(=O)OC)C3)NC(c2nccs2)=N[C@H]1c1ccc(F)cc1Cl [Example 17] , field Selectivity index (CC50/EC50): 11628

###

# method-summary: Human microsomal clearance assay
# Assay type: in vitro ADME
# settings: human microsomal clearance
endpoint-name: CLh (mL/min/kg)
Field: numeric (mL/min/kg). Do not append units.

• COC(=O)C1=C(CN2CC3(F)CC2(C(=O)O)C3)NC(c2nccs2)=N[C@H]1c1ccc(F)cc1Cl = 1.4
• COC(=O)C1=C(CN2[C@@H]3C[C@@H](CC(=O)O)C[C@H]2C(F)(F)C3)NC(c2nccs2)=N[C@H]1c1ccc(Cl)c(F)c1 (single isomer, unassigned) = 6.2
• COC(=O)C1=C(CN2[C@H]3C[C@@H](CC(=O)O)C[C@@H]2C(F)(F)C3)NC(c2nccs2)=N[C@H]1c1ccc(Cl)c(F)c1 = 0
• COC(=O)C1=C(CN2[C@H]3COC[C@@H]2C(F)(F)[C@H](CC(=O)O)C3)NC(c2nccs2)=N[C@H]1c1ccc(F)c(F)c1Cl (single isomer, unassigned) = 0

As a next step, examine the molecule that follows.
Record COC(=O)C1=C(CN2CC3(CO)CC2CO3)NC(c2nccs2)=N[C@H]1c1ccc(F)cc1Cl (some centres unmarked) , field CLh: 7.4

Each recorded value in this set is attributed to patent US9266904B2.
